Hi there, I'd appreciate the recorded pIC50 for every entry that follows.
- target-or-test-system: UniProt:P35498
- assay-summary: Sodium Influx Assay (Flux), NaV1.1;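 further: channels co-expressed with human β1 subunit and held open by modulators, cells exposed to compounds for one hour at room temperature, IC50 from percent inhibition of influx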
- Assay type: cell-based
- measurement-parameters: Trex HEK293 cells, ANG2 dye, inactivated state
Counter-ions that a name gives are not always drawn.
Numbers only, as −log10 of the molar value.

In [3]: df
Out[3]:
                                   molecule  property  measured
0  CC1(C)CCN1Cc1cccc(Cl)c1CNc1cc(F)c(S(=O)(=O)Nc2cscn2)c(F)c1 [Example 199, formate]     pIC50      5.39

Consider the following items and state reported pIC50 for each.
1. CN(C)Cc1ccccc1C1(Nc2cc(F)c(S(=O)(=O)Nc3cscn3)cc2Cl)CC1 [Example 217, 2,2,2-trifluoroacetate]
2. CN(C)Cc1cccc(F)c1CNc1cc(F)c(S(=O)(=O)Nc2cscn2)cc1Cl [Example 249, 2,2,2-trifluoroacetate]
3. COCc1ccc(F)c([C@H](C)Nc2cc(F)c(S(=O)(=O)Nc3cscn3)c(F)c2)c1

[4.82, 4.52, 4.88]
